Exercise: state measured cytotoxicity for each of the compounds provided.
Assay: cytotoxicity in Sufu-KO-LIGHT cells, confirmation, cytotoxicity control for Gli-SUFU antagonist project, cell-based, ATP luminescence, single concentration (AID 651994);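 further: cells exposed to compound overnight for roughly 16 to 18 hours; plate controls were DMSO wells with cells for no effect and medium without cells for full effect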
Settings: at 5 µM, stronger effect = higher value
Out of some 2,500 compounds screened, about 790 (32%) were called active. The list is a sample of the results.

GET /values?readout=cytotoxicity&item= CCN(CC)CCNC(=O)c1ccc(NC(=O)c2cc(-c3ccncc3)nc3ccccc23)cc1
16.3% (inactive)

GET /values?readout=cytotoxicity&item= O=C(Nc1cccc(S(=O)(=O)Nc2ccc(Cl)cc2)c1)c1ccc2c(c1)OCCO2
28.9% (active)

GET /values?readout=cytotoxicity&item= O=C(O)CCCn1cc(NC(=O)COc2cccc(Cl)c2)cn1
11.7% (inactive)

GET /values?readout=cytotoxicity&item= CN(C)c1cc[n+](Cc2ccccc2)cc1
33.3% (active)
